test system: HCC 2998; assay: NCI tumour cell line growth inhibition, 48 h
Activity calls are given as the source filed them. No stated cut-off is given here; in the data, active = GI50 up to about 1.1 µM and inactive = higher.
Listing of recorded GI50 by entry.

Recorded results for 8 compounds are shown here.
INSERT INTO assay_data (compound, measured_result) VALUES
  ('CCCCCC(=O)OCC1(CO)C/C(=C/CC(C(C)C)C(C)C)C(=O)O1 (centres undefined)', '59.7 µM (inactive)'),
  ('O=C(O)C1CC(O)CN1 (centres undefined)', '> 100 µM (inactive)'),
  ('C/C=C/COc1cc(NC(=S)OC(C)C)ccc1Cl.C/C=C\COc1cc(NC(=S)OC(C)C)ccc1Cl', '16.1 µM (inactive)'),
  ('CC(C)CNc1nc(N)nc(O)c1NC=O', '> 100 µM (inactive)'),
  ('N#C/C=C1\C=CC(O)C(O)C1OC1OC(CO)C(O)C(O)C1O (centres undefined)', '> 100 µM (inactive)'),
  ('CN(C)CCOc1ccc2c(c1)C/C(=C/c1ncc([N+](=O)[O-])n1C)C2=O', '2.03 µM (inactive)'),
  ('CC(=O)O[C@H]1C[C@@H](OC(C)=O)[C@@](C)(O)[C@@H]2[C@@H](OC(C)=O)[C@@]3(O)[C@H](/C=C(/CCl)[C@H]4O[C@H]4[C@@H](OC(C)=O)[C@@]12C)OC(=O)[C@@H]3C', '> 25 µM (inactive)'),
  ('COC(=O)C12OCC34C(CC5C(C)C6=CC(=O)OC6=CC5(C)C3C(O)C1O)OC(=O)C(OC(C)=O)C24 (centres undefined)', '16.1 µM (inactive)');

q: Given the compound `C(=C\c1ccco1)/c1cccc(/C=C/c2ccco2)n1` , what is its reported GI50?
a: > 50 µM (inactive)

----------
test system: UACC-62; assay: NCI tumour cell line growth inhibition, 48 h
Calls of active or inactive are those of the source. No stated cut-off is given here; in the data, active = GI50 up to about 1.1 µM and inactive = higher.
Recorded metric: GI50

Recorded results for 3 compounds are shown here.
INSERT INTO assay_data (compound, recorded_metric, measured_result) VALUES
  ('COc1ccc(NC(=O)CSc2nnc(-c3ccc(NC(C)=O)cc3)o2)cc1', 'GI50', '16.5 µM (inactive)'),
  ('COC(=O)C12OCC34C(CC5C(C)C6=CC(=O)OC6=CC5(C)C3C(O)C1O)OC(=O)C(OC(C)=O)C24 (stereo not given)', 'GI50', '12.9 µM (inactive)'),
  ('c1ccc2c(c1)NCc1cc3ccccc3nc1O2', 'GI50', '> 100 µM (inactive)');

q: Given the compound `CCOC(=O)/C(=C\NC(C)(C)C)c1nc2ccccc2o1` , what is its reported GI50?
a: 18.4 µM (inactive)

q: Given the compound `CCn1c(SCC(=O)NNC(=S)Nc2ccc(F)cc2)nc2ccccc2c1=O` , what is its reported GI50?
a: 58.7 µM (inactive)

q: Given the compound `COc1ccc(Cl)cc1NC(=O)c1cccc([N+](=O)[O-])c1O` , what is its reported GI50?
a: 6.82 µM (inactive)

q: Given the compound CN1CC[C@]2(C)c3c(O)cccc3CC3CCCC1C32C (stereo not given in full) , what is its reported GI50?
a: > 100 µM (inactive)

q: Given the compound CC(C)(C)C1=C(Br)C(Br)(C(C)(C)C)OP1(=O)c1ccccc1 (stereo not given) , what is its reported GI50?
a: > 100 µM (inactive)
